# Test system: Nakaseomyces glabratus
# Protocol notes: Antimicrobial activity against Candida glabrata ATCC 48435 using alamar blue stain by microdilution assay
# Type: functional
Parameter: MIC

mol_smiles=Cc1c(-c2ccccc2)c(N2CC[C@H](N(C)C)C2)n2nc(C3CC3)nc2c1C#N measurement="0.063 µg/mL"
mol_smiles=Cc1c(-c2ccccc2)c(N2CC[C@H](N(C)C)C2)n2nc(C(C)(C)COCc3ccccc3)nc2c1C#N measurement="0.125 µg/mL"
mol_smiles=Cc1cn2c(N3CC[C@H](N(C)C)C3)c(-c3ccccc3)c(C)c(C#N)c2n1 measurement="0.5 µg/mL"

---

# System: Candida tropicalis
# Protocol notes: Antimicrobial activity against Candida tropicalis TIMM 0313 by microdilution assay
# Type: functional
Parameter: MIC (µg/mL)

mol_smiles=CCCCc1nc2c(C#N)c(C)c(-c3ccccc3)c(N3CC[C@H](N(C)C)C3)n2n1 target_desc="Candida tropicalis" parameter=MIC result_operator=> measurement=64
mol_smiles=Cc1nc2c(C#N)c(C)c(-c3ccccc3)c(N3CC[C@H](N(C)C)C3)n2n1 target_desc="Candida tropicalis" parameter=MIC result_operator=> measurement=128
mol_smiles=Cc1c(-c2ccccc2)c(N2CC[C@H](N(C)C)C2)n2c(nc3ccccc32)c1C#N target_desc="Candida tropicalis" parameter=MIC result_operator== measurement=0.5
mol_smiles=CCCCc1c(C)c(C#N)c2nc3ccccc3n2c1N1CC[C@H](N(C)C)C1 target_desc="Candida tropicalis" parameter=MIC result_operator== measurement=0.5
mol_smiles=Cc1c(-c2ccccc2)c(N2CC[C@H](N(C)C)C2)n2nc(-c3ccccc3)nc2c1C#N target_desc="Candida tropicalis" parameter=MIC result_operator=> measurement=128
mol_smiles=Cc1c(-c2ccccc2)c(N2CC[C@H](N(C)C)C2)n2nc(C(C)(C)C)nc2c1C#N target_desc="Candida tropicalis" parameter=MIC result_operator== measurement=2
mol_smiles=CCN(CC)CCNc1c(-c2ccccc2)c(C)c(C#N)c2nc(C(C)(C)C)nn12 target_desc="Candida tropicalis" parameter=MIC result_operator=> measurement=128
mol_smiles=OC(Cn1cncn1)(Cn1cncn1)c1ccc(F)cc1F target_desc="Candida tropicalis" parameter=MIC result_operator== measurement=0.25
mol_smiles=CCCCc1c(C)c(C#N)c2nc(C(C)(C)C)nn2c1N1CC[C@H](N(C)C)C1 target_desc="Candida tropicalis" parameter=MIC result_operator=> measurement=128

---

# Protocol notes: Octanol-phosphate buffered saline partition coefficient, log D of the compound at pH 6.8
# Assay type: physicochemical
Parameter: logD

mol_smiles=CCCCc1c(C)c(C#N)c2nc(C(C)(C)C)nn2c1N1CC[C@H](N(C)C)C1 parameter=logD measurement=3.2
mol_smiles=Cc1nc2c(C#N)c(C)c(-c3ccccc3)c(N3CC[C@H](N(C)C)C3)n2n1 parameter=logD measurement=1.7
mol_smiles=CCN(CC)CCNc1c(-c2ccccc2)c(C)c(C#N)c2nc(C(C)(C)C)nn12 parameter=logD measurement=3.3
mol_smiles=CCCCc1nc2c(C#N)c(C)c(-c3ccccc3)c(N3CC[C@H](N(C)C)C3)n2n1 parameter=logD measurement=3.2
mol_smiles=Cc1c(-c2ccccc2)c(N2CC[C@H](N(C)C)C2)n2nc(C(C)(C)C)nc2c1C#N parameter=logD measurement=3.1

---

# System: Liver microsomes
# Protocol notes: Metabolic stability in human liver microsomes
# Format: ADME, Microsome
Below: a set of entries, each annotated with reported Stability.
Parameter: Stability (%)

mol_smiles=Cc1c(-c2ccccc2)c(N2CC[C@H](N(C)C)C2)n2nc(C(C)(C)CO)nc2c1C#N parameter=Stability measurement=64
mol_smiles=CCCCc1c(C)c(C#N)c2nc(C(C)(C)C)nn2c1N1CC[C@H](N(C)C)C1 parameter=Stability measurement=11
mol_smiles=CCCCc1c(C)c(C#N)c2nc3ccccc3n2c1N1CC[C@H](N(C)C)C1 parameter=Stability measurement=57
mol_smiles=Cc1c(-c2ccccc2)c(N2CC[C@H](N(C)C)C2)n2cc(C(C)(C)C)nc2c1C#N parameter=Stability measurement=16
mol_smiles=Cc1c(-c2ccccc2)c(N2CC[C@H](N(C)C)C2)n2nc(C(C)(C)C)nc2c1C#N parameter=Stability measurement=9
mol_smiles=Cc1c(-c2ccccc2)c(N2CC[C@H](N(C)C)C2)n2nc(C3CC3)nc2c1C#N parameter=Stability measurement=48
